This collection of values is drawn from PubChem BioAssay.

Molecular target: Torsin-1A (Homo sapiens)
Assay: torsin A mutant lysate binding on microarrays – cell lysate, small-molecule microarray, COS7 lysate, 635/667 nm fluorescence, primary screen (AID 1150);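 further: score pools 667 nm emission and signal to noise measuring lysate protein binding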
Settings: COS7 hTOR1A mutant lysate, 635 nm fluorescence, higher = more signal
The entries below are paired with their reported composite z-score.

compound	composite z-score
CC1CC/C=C\[C@H]2OC34C=CCN(c5ccc(Cl)cc5)C(=O)[C@H]3N(CCCCCCO)C(=O)[C@]4(C)C2C(=O)O1 (stereo not given in full)	-1.7
O=C1OCCC=C[C@H]2OC34C=CCN(c5ccc6ccccc6c5)C(=O)[C@H]3N(CCO)C(=O)[C@@H]4C12 (stereo not given in full)	-0.669
[N-]=[N+]=NCc1ccccc1[C@@H]1OC(c2ccc(OCCCO)cc2)=N[C@]1(Cc1ccccc1N=[N+]=[N-])C(=O)O	0.585
CN(C)CCCCNC(=O)[C@H]1C[C@H]2C(=O)NCC(=O)N2[C@H]1c1ccc(O)cc1	1.07
COc1ccc(C(=O)Nc2cccc(CN3C(=O)[C@]4(O[C@H](CC(=O)N5Cc6ccccc6C[C@H]5CO)[C@@H]([Si](C)(C)c5ccc(OC)cc5)[C@@H]4C)c4ccccc43)c2)cc1	0.701
O=C1c2ccccc2[C@@]2(Cc3ccccc3N(Cc3ccccc3)C2=O)[C@H](c2ccc(CO)cc2)N1Cc1ccccc1Cl	0.454
Cc1ccc(S[C@]2(C(=O)NCc3ccccc3)CC(=O)N(Cc3ccccc3C(F)(F)F)[C@@H]2c2ccc(CO)cc2)cc1	-0.687
CC[C@@H]1C=C(C(=O)O)[C@H](c2ccc(OC)cc2)N1S(=O)(=O)c1ccc(C)cc1	0.316
CCOC(=O)C1=CC[C@@H](c2ccc(OC)cc2)N(S(=O)(=O)c2ccc(C)cc2)[C@H]1CC	0.714
O=C1C2C=CC(C(O)c3cccs3)N(Nc3ccc([N+](=O)[O-])cc3)C2C(=O)N1c1ccccc1 (stereo not given)	0.303
CCN(CC)c1ccc(N2CC=CC34O[C@@H]5C=CCCOC(=O)C5[C@H]3C(=O)N(C(C)CO)[C@@H]4C2=O)cc1 (stereo not given in full)	-0.194
CC=CC(O)C1C=CC2C(=O)NC(=O)C2N1Nc1ccc(Cl)cc1Cl (stereo not given)	0.0964
COc1ccc([Si](C)(C)[C@@H]2[C@@H](CC(=O)N3CCC[C@H]3CO)O[C@]3(C(=O)N(Cc4ccc(N5CCOC5=O)cc4)c4ccccc43)[C@H]2C)cc1	0.557
COCCCN1C(=O)[C@@]2(c3ccc([N+](=O)[O-])cc3)CC(=O)N(CC34CC5CC(CC(C5)C3)C4)[C@@H]2c2ccc(CO)cc21	-0.0458
CC(C)N1C(=O)c2ccccc2[C@@H](C(=O)NCC(F)(F)F)[C@@H]1c1ccc(CO)cc1	-1.02

====

Assay: JC-1 mitochondrial signal, unstimulated HepG2 cells – cell-based, JC-1 fluorescence, 24 h, 100 nL compound, profiling panel (AID 1167); further: test concentration not given here
Conditions: HepG2 mitochondrial potential, higher = more signal

smiles string	z-score
COCCOC(=O)N1C(=O)[C@@]2(c3cc(C#CCC(C(=O)OC)C(=O)OC)ccc31)[C@H](C(=O)Nc1nc3ccccc3s1)[C@H]1C(=O)O[C@H](c3ccccc3)[C@H](c3ccccc3)N1[C@@H]2c1ccc(OCCO)cc1	-3.27
COC(=O)[C@]1(Cc2ccccc2)N=C(c2ccc(OCCCO)cc2)O[C@@H]1c1ccccc1CN=[N+]=[N-]	-2.4
COc1ccc(C(=O)Nc2ccc(CN3C(=O)[C@@]4(O[C@@H](CCn5cc(CCO)nn5)[C@H]([Si](C)(C)c5ccc(OC)cc5)[C@H]4C)c4ccccc43)cc2)cc1	-1.29

====

Experiment: probe aInhba binding on compound microarray – biochemical, small-molecule microarray, 635/667 nm fluorescence, primary screen (AID 1148);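 further: score merges 667nm spot fluorescence with signal-to-noise for antibody binding to printed compounds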
Conditions: higher = more signal
quantity: composite z-score

compound	quantitative result
O=C1O[C@H](c2ccccc2)[C@H](c2ccccc2)N2[C@H]1[C@@H](C(=O)O)[C@]1(C(=O)Nc3ccc(C#CCCO)cc31)[C@H]2c1ccc(OCCO)cc1	0.0082
CC(C)NC(=O)[C@@]1(c2ccc([N+](=O)[O-])cc2)CC(=O)N(CC23CC4CC(CC(C4)C2)C3)[C@@H]1c1ccc(CO)cc1	1.19
C[C@@H]1NC(=O)C([C@@H](C)OCc2ccccc2)NC(=O)[C@@]23C(=O)N[C@@H](Cc4ccccc4)C2[C@H](C)[C@@]2(C)O[C@H]2C3/C=C/C/C=C\CNC1=O (stereo not given in full)	-0.25
O=C1c2ccccc2[C@@]2(Cc3ccccc3N(Cc3ccccc3)C2=O)[C@H](c2ccc(CO)cc2)N1Cc1ccccc1Cl	-0.13
[N-]=[N+]=Nc1ccccc1C[C@@]1(C(=O)NCc2ccccc2)N=C(c2ccc(OCCCO)cc2)O[C@@H]1c1ccccc1N=[N+]=[N-]	0.767
O=C1O[C@H](Cc2ccccc2)[C@@H]2[C@H]3C=CCCC=C3CN2[C@H]1Cc1ccc(O)cc1	0.214
CC(C)(C)N1CC=CC23O[C@@H]4/C=C\CCCOC(=O)C4[C@H]2C(=O)N(CCCO)[C@@H]3C1=O (stereo not given in full)	-0.0112
CC(C)(C)OC(=O)CC[C@@]1(C(=O)NCCN2CCOCC2)N=C(c2ccc(OCCCO)cc2)O[C@@H]1c1ccccc1CN=[N+]=[N-]	-0.0494
CCCCC(O)C1C=CC2C(=O)N(c3ccccc3)C(=O)C2N1Nc1ccc([N+](=O)[O-])cc1 (stereo not given)	0.215
CC(=O)OCC1C2CC[C@H]3C(OCc4ccc(F)cc4C(F)(F)F)OC[C@]4(C)[C@H]3C2=C(CN4C(=O)OC(C)(C)C)[C@H](C)C1COC(C)=O (stereo not given in full)	0.196
O=C1[C@H]2C=C(I)[C@H](C[C@@H]2OCCCCCCO)[C@@]12CO2	0.255
COCCOC(=O)N1C(=O)[C@@]2(c3ccccc31)[C@H](c1ccc(O)cc1)N1[C@H](c3ccccc3)[C@H](c3ccccc3)OC(=O)[C@H]1[C@@H]2C(=O)N1CCCCCCC1	2.08
CN(C)CCCC[C@@H]1NC(=O)[C@H]2C[C@@H](C(=O)O)[C@@H](c3ccc(O)cc3)N2C1=O	1.98
CN1C(=O)C2C(C1=O)C1C=C(c3ccc(CO)cc3)C2C(C2CC2)N1C (stereo not given)	-0.128
O=C1O[C@@H](c2ccccc2)[C@@H](c2ccccc2)N2[C@@H](c3ccc(OCCO)cc3)[C@]3(C(=O)Nc4ccc(C#CC5(O)CCCCCC5)cc43)[C@@H](C(=O)O)[C@H]12	-0.0695
C#CCN1[C@@H](Cc2ccccc2)C(=O)O[C@H](Cc2ccccc2)[C@@H]1/C=C/C1CC1	-0.0763
COC(=O)C1=CC(CCCO)=CC(c2cccs2)N(Cc2cc3c(cc2Br)OCO3)C=C1C(=O)OC (stereo not given)	0.0659
CCCC=C(CCC)[C@@H](NC(=O)c1ccc(C(F)(F)F)cc1)c1ccc(C(F)(F)F)cc1	0.207
CC(C)OC(=O)CC(=O)CC(O)c1cccc([N+](=O)[O-])c1 (stereo not given)	-0.0221
C=C(CCCC)/C(=C/C[C@H](OC(=O)c1ccncc1)c1ccccc1OCCO)c1cc(C(=O)OC)ccc1OC	0.0391
CCOC(=O)C1=CCC(c2cc3ccccc3[nH]2)N(CCN2CC(C(=O)OCC)=CCC2c2cc3ccccc3[nH]2)C1 (stereo not given)	0.162
C[N+](C)(C)CCCCNC(=O)[C@H]1C[C@H]2C(=O)N[C@@H](Cc3ccccc3)C(=O)N2[C@H]1c1cccc(OCCO)c1	0.152
CC1CC/C=C\[C@H]2OC34C=CCN(CCN5CCOCC5)C(=O)[C@H]3N(CCCO)C(=O)[C@@H]4C2C(=O)O1 (stereo not given in full)	-0.154
C=CCNC(=O)[C@@H]1[C@H]2C(=O)O[C@H](c3ccccc3)[C@H](c3ccccc3)N2[C@H](c2ccc(OCCO)cc2)[C@@]12C(=O)Nc1ccc(C#CC3(O)CCCCCC3)cc12	0.0082
C=CCN1Cc2ccccc2[C@H]2OC(c3ccc(OCCCO)cc3)=N[C@@]2(CCS(=O)(=O)c2ccccc2)C1=O	0.275
CCCNC(=O)[C@@]1(Sc2ccc(C)cc2)CC(=O)N(Cc2ccccc2Cl)[C@@H]1c1ccc(CO)cc1I	0.216
C=C(C)[C@@H]1CC=C(C(O)C2C=CC3C(=O)N(c4ccccc4)C(=O)C3N2Nc2ccc([N+](=O)[O-])cc2)CC1 (stereo not given in full)	0.19
[N-]=[N+]=NCc1ccccc1[C@@H]1OC(c2ccc(OCCCO)cc2)=N[C@]1(Cc1ccccc1N=[N+]=[N-])C(=O)O	0.587
COc1cc(CO)cc(I)c1O[C@H]1C=C(C(=O)NCCO)C[C@@H](NC2CCCCCC2)[C@@H]1O	-0.0115
C=CC[C@@]1(C(=O)OC)N=C(c2ccc(OCCCO)cc2)O[C@@H]1c1ccccc1N=[N+]=[N-]	0.286
